Every entry's value here was drawn from paper PMC6424611.

Answer each item with its documented Kd.
# SYSTEM_NAME: MBP-fused PDZ domain 2 of GRID2IP (human, UniProt A4D2P6 279-356)
# Sequence (A4D2P6 279-356): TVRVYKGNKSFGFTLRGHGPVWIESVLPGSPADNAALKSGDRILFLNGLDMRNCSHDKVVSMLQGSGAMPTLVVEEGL
# TEST_METHOD_NOTES: fluorescence polarisation
Where no end group is shown, it is not given here.
The figure you give is taken to be in µM; do not add the unit.

Q: Field request: Kd | item: RSK1 683-735 peptide, phosphorylated (peptide, UniProt Q15418 683-735, looked up, also: monophosphorylated, site not given here) peptide: QSQLSHQDLQLVKGAMAATYSALNSSKPTPQLKPIESSILAQRRVRKLPSTTL
A: 85

Q: Field request: Kd | item: RSK1 683-735 peptide, unphosphorylated (peptide, UniProt Q15418 683-735, looked up) peptide: QSQLSHQDLQLVKGAMAATYSALNSSKPTPQLKPIESSILAQRRVRKLPSTTL
A: 1.7
